Measured values drawn from ChEMBL document CHEMBL5380865 for this set.

- Test system: Staphylococcus aureus
- PROTOCOL_NOTES: Antibacterial activity Staphylococcus aureus USA300 assessed as inhibition of visible bacterial growth incubated for 18 hrs by microbroth dilution assay
- Type: functional
Where a SMILES comes first, the peptide text is derived from it. [ ]: non-standard residue; d: D form. The star is where a group is joined. ξ: configuration not given here. Hexanoyl(4ξ-Me) = CCC(C)CCC(=O)*; dOrn = NCCC[C@@H](N)C(=O)O; Orn = NCCC[C@H](N)C(=O)O
# MIC values compiled below

Reference set, count: 2
COMPOUND	MIC
CCC(C)CCC(=O)N[C@H](CC(N)=O)C(=O)N[C@H](Cc1ccc(O)cc1)C(=O)N[C@H](Cc1c[nH]c2ccccc12)C(=O)N[C@H](CCCN)C(=O)N[C@@H](CCCN)C(=O)NCC(=O)N[C@H](C)C(=O)N[C@@H](Cc1c[nH]c2ccccc12)C(=O)N[C@H](C(=O)N[C@H](C(=O)NCC(=O)N[C@@H](CO)C(N)=O)[C@@H](C)CC)[C@@H](C)O (stereo partly drawn) ({Hexanoyl(4ξ-Me)}-[dN][dY][dW][dOrn][Orn]G[dA]WTIGS-NH2)	> 32 µg/mL
CCC(C)CCC(=O)N[C@H](CC(N)=O)C(=O)N[C@H](C)C(=O)N[C@H](Cc1c[nH]c2ccccc12)C(=O)N[C@H](CCCN)C(=O)N[C@@H](CCCN)C(=O)NCC(=O)N[C@H](CCCN)C(=O)N[C@@H](Cc1c[nH]c2ccccc12)C(=O)N[C@H](C(=O)N[C@H](C(=O)NCC(=O)N[C@@H](CO)C(N)=O)[C@@H](C)CC)[C@@H](C)O (stereo partly drawn) ({Hexanoyl(4ξ-Me)}-[dN][dA][dW][dOrn][Orn]G[dOrn]WTIGS-NH2)	> 32 µg/mL

Read the next record carefully.
Ask: Please report MIC for the following compound: CCC(C)CCC(=O)N[C@H](CC(N)=O)C(=O)N[C@H](Cc1ccc(O)cc1)C(=O)N[C@H](Cc1c[nH]c2ccccc12)C(=O)N[C@H](CCCN)C(=O)N[C@@H](CCCN)C(=O)NCC(=O)N[C@H](CCCN)C(=O)N[C@@H](C)C(=O)N[C@H](C(=O)N[C@H](C(=O)NCC(=O)N[C@@H](CO)C(N)=O)[C@@H](C)CC)[C@@H](C)O (stereo partly drawn) ({Hexanoyl(4ξ-Me)}-[dN][dY][dW][dOrn][Orn]G[dOrn]ATIGS-NH2)
Result: > 32 µg/mL

---

hemolysis at 1 h values by entry
- PROTOCOL_NOTES: Hemolytic activity in sheep red blood cell assessed as hemolysis at 1 to 128 ug/ml incubated for 1 hrs relative to control
- Format: toxicity, cell-based, Ovis aries, Erythrocyte
- REPORTED_CONDITIONS: sheep red blood cells (erythrocytes), at 1 to 128 µg/mL, dose 1-128 µg/ml, read-out: Activity
Where a SMILES comes first, the peptide text is derived from it. [ ]: non-standard residue; d: D form. The star is where a group is joined. Octanoyl(7-Me) = CC(C)CCCCCC(=O)*; dOrn = NCCC[C@@H](N)C(=O)O; Orn = NCCC[C@H](N)C(=O)O; Dap = NC[C@H](N)C(=O)O; OAll = C=CCO*

Here is how some compounds turned out for hemolysis at 1 h.
COMPOUND	hemolysis at 1 h
C=CCOC(=O)CC[C@H](NC(=O)[C@H](Cc1c[nH]c2ccccc12)NC(=O)[C@@H](CCCN)NC(=O)CNC(=O)[C@H](CCCN)NC(=O)[C@@H](CCCN)NC(=O)[C@@H](Cc1c[nH]c2ccccc12)NC(=O)[C@@H](Cc1ccc(O)cc1)NC(=O)[C@@H](CO)NC(=O)CCCCCC(C)C)C(=O)N[C@H](C(=O)N[C@@H](CC(N)=O)C(=O)NCC(=O)NCC(N)=O)[C@@H](C)CC ({Octanoyl(7-Me)}-[dS][dY][dW][dOrn][Orn]G[dOrn]WE(OAll)INGG-NH2)	< 0.1%
CC[C@H](C)[C@H](NC(=O)[C@H](CC(N)=O)NC(=O)[C@H](Cc1c[nH]c2ccccc12)NC(=O)[C@@H](CCCN)NC(=O)CNC(=O)[C@H](CCCN)NC(=O)[C@@H](CCCN)NC(=O)[C@@H](Cc1c[nH]c2ccccc12)NC(=O)[C@@H](Cc1ccc(O)cc1)NC(=O)[C@@H](CO)NC(=O)CCCCCC(C)C)C(=O)N[C@@H](CC(N)=O)C(=O)NCC(=O)NCC(N)=O ({Octanoyl(7-Me)}-[dS][dY][dW][dOrn][Orn]G[dOrn]WNINGG-NH2)	< 0.1%

Then this compound:
Ask: For CC[C@H](C)[C@H](NC(=O)[C@H](CN)NC(=O)[C@H](Cc1c[nH]c2ccccc12)NC(=O)[C@@H](CCCN)NC(=O)CNC(=O)[C@H](CCCN)NC(=O)[C@@H](CCCN)NC(=O)[C@@H](Cc1c[nH]c2ccccc12)NC(=O)[C@@H](Cc1ccc(O)cc1)NC(=O)[C@@H](CO)NC(=O)CCCCCC(C)C)C(=O)N[C@@H](CC(N)=O)C(=O)NCC(=O)NCC(N)=O ({Octanoyl(7-Me)}-[dS][dY][dW][dOrn][Orn]G[dOrn]W[Dap]INGG-NH2) , write its hemolysis at 1 h.
Result: < 0.1%
